Form field: kinase still bound, per cent of control (one value per entry).
TEST TARGET: TGFBR1 (human)
ASSAY OVERVIEW: KINOMEscan competition binding
MEASUREMENT CONDITIONS: compound 10.0 µM
Lab book: enter the figure in %, no units written.

The following compounds have reported results that may help.
{"COMPOUND": "COc1cc(C(=O)NC2CCN(C)CC2)ccc1Nc1ncc2c(n1)N(C1CCCC1)CCC(=O)N2C(C)C", "UNIT LABEL": "%", "kinase still bound, per cent of control": 100}
{"COMPOUND": "Cn1c(=O)n(-c2ccc(C(C)(C)C#N)cc2)c2c3cc(-c4cnc5ccccc5c4)ccc3ncc21", "UNIT LABEL": "%", "kinase still bound, per cent of control": 100}
{"COMPOUND": "Cc1ccc2nc(NCCN)c3ncc(C)n3c2c1", "UNIT LABEL": "%", "kinase still bound, per cent of control": 100}

Let us examine a further case.
Enquiry: Please report the recorded kinase still bound, per cent of control for C=CC(=O)Nc1cc(NC(=O)c2ccc(C)c(NC(=O)c3ccno3)c2)cc(C(F)(F)F)c1 .
Return: 96

* * *

TEST TARGET: RPS6KA1 KD2 (human) (UniProt Q15418)
Sequence (Q15418 whole entry, looked up): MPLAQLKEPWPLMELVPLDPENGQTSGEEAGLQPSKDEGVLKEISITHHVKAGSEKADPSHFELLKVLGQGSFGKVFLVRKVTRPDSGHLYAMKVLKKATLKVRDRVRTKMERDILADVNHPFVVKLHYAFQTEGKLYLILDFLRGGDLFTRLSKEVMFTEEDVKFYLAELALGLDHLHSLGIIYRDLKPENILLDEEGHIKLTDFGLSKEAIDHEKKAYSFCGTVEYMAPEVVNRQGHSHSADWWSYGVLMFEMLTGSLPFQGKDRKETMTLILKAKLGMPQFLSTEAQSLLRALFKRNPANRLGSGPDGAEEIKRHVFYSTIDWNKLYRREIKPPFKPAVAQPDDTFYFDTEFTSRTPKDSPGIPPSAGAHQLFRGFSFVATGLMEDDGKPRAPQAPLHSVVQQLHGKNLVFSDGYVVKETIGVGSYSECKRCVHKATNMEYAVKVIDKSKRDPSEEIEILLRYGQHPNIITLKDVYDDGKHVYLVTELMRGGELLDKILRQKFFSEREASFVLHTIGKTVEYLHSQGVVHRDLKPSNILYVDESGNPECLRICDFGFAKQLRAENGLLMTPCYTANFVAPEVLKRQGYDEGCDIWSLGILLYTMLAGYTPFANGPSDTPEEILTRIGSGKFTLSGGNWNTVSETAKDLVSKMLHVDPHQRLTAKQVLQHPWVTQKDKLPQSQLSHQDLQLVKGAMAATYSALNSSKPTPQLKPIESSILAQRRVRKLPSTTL
ASSAY OVERVIEW: KINOMEscan competition binding
MEASUREMENT CONDITIONS: compound 10.0 µM
MEASURED ENDPOINT: kinase still bound, per cent of control (%)
Give a bare numeral; the unit % is implied.

Enquiry: Item: N#Cc1c(NC(=O)c2cccc3ccccc23)sc2c1CCCC2 Test system: RPS6KA1 KD2 (human) (UniProt Q15418) Read-out: kinase still bound, per cent of control Value: ?
Return: 78

Enquiry: Query kinase still bound, per cent of control on RPS6KA1 KD2 (human) (UniProt Q15418) for O=C(NOC[C@H](O)CO)c1ccc(F)c(F)c1Nc1ccc(I)cc1F
Return: 84

Enquiry: Item Nc1ccc(-c2ccc3ncc4ccc(=O)n(-c5cccc(C(F)(F)F)c5)c4c3c2)cn1 with RPS6KA1 KD2 (human) (UniProt Q15418) - kinase still bound, per cent of control?
Return: 100

Enquiry: Form: Entry = CCCS(=O)(=O)Nc1ccc(F)c(C(=O)c2c[nH]c3ncc(-c4ccc(Cl)cc4)cc23)c1F | System = RPS6KA1 KD2 (human) (UniProt Q15418) | kinase still bound, per cent of control = ____
Return: 59

Enquiry: Record lookup: for RPS6KA1 KD2 (human) (UniProt Q15418), what kinase still bound, per cent of control belongs to Cn1c(=O)n(-c2ccc(C(C)(C)C#N)cc2)c2c3cc(-c4cnc5ccccc5c4)ccc3ncc21 ?
Return: 100

Enquiry: Query for RPS6KA1 KD2 (human) (UniProt Q15418): what kinase still bound, per cent of control does the record show for Cc1ccc2nc(NCCN)c3ncc(C)n3c2c1 ?
Return: 46

Enquiry: RPS6KA1 KD2 (human) (UniProt Q15418) / kinase still bound, per cent of control / CCOc1cc2ncc(C#N)c(Nc3ccc(OCc4ccccn4)c(Cl)c3)c2cc1NC(=O)/C=C/CN(C)C : value?
Return: 85

* * *

TEST TARGET: EPHA4 (human)
ASSAY OVERVIEW: KINOMEscan competition binding
MEASUREMENT CONDITIONS: compound 10.0 µM
MEASURED ENDPOINT: kinase still bound, per cent of control
Note: state the figure and append the unit.

{"SMILES CODE": "Cc1ccc(NC(=O)c2cccc(C(C)(C)C#N)c2)cc1Nc1ccc2ncn(C)c(=O)c2c1", "kinase still bound, per cent of control": "0%"}
{"SMILES CODE": "Nc1ccc(-c2ccc3ncc4ccc(=O)n(-c5cccc(C(F)(F)F)c5)c4c3c2)cn1", "kinase still bound, per cent of control": "100%"}

Query molecule follows.
Enquiry: Using the record for O=C(O)c1ccc(Nc2ncc3c(n2)-c2ccc(Cl)cc2C(c2c(F)cccc2F)=NC3)cc1 , report its kinase still bound, per cent of control.
Return: 11%
